Would you kindly list EC50 for each of these molecules?
Target: PPAR-gamma (UniProt P37231)
Sequence (P37231 1-505): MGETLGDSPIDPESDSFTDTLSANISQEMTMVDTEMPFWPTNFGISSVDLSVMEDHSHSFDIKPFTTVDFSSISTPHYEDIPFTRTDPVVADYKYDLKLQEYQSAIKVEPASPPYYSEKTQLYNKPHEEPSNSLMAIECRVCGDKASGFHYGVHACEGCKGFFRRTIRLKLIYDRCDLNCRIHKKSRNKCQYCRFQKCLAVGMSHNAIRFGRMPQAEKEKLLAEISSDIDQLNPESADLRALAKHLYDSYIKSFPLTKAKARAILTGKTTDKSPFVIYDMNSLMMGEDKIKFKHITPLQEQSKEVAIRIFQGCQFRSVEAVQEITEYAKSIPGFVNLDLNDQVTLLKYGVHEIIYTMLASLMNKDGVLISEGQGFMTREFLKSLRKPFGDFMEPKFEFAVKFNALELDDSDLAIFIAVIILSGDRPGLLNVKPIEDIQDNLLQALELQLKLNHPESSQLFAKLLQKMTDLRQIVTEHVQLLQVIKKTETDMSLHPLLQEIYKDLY
Assay: PPAR-gamma transactivation assay (GAL4 chimera, luciferase reporter) in CV-1 cells
Conditions: GAL4-PPAR LBD chimera

Please tell me: EC50 of CC1(C(=O)O)Cc2ccc(S(=O)(=O)N3CCN(c4ccc(C(F)(F)F)cn4)CC3)cc2C1 (stereo not shown) [Example 13] , system PPAR-gamma (UniProt P37231)?
5 to 100 µM

What do we get for COC(=O)[C@@H]1CN(S(=O)(=O)c2ccc3c(c2)C(C(=O)O)CC3)CCN1c1ccc(C(F)(F)F)cn1 (stereo partly shown) [Example 40] ?
< 5 µM

What do we get for CCC1CN(c2ccc(C(F)(F)F)cc2F)CCN1S(=O)(=O)c1ccc2c(c1)C(C(=O)O)CC2 (stereo not shown) [Example 60] ?
5 to 100 µM

What do we get for O=C(O)C1CCc2ccc(S(=O)(=O)N3CCN(c4ccc5c(c4)OCO5)CC3)cc21 (stereo not shown) [Example 21] ?
5 to 100 µM

What do we get for O=C(O)C1CCc2ccc(S(=O)(=O)N3CCCN(c4ccc(C(F)(F)F)cn4)CC3)cc21 (stereo not shown) [Example 67] ?
< 5 µM

What do we get for CC1CN(S(=O)(=O)c2ccc3scc(CC(=O)O)c3c2)C(C)CN1c1ccc(C(F)(F)F)cn1 (stereo not shown) [Example 44] ?
5 to 100 µM

What do we get for C[C@@H]1CN(Cc2ccc(OC(F)(F)F)cc2)C[C@H](C)N1S(=O)(=O)c1cccc2c1CC(C(=O)O)C2 (single isomer, unassigned) [Example 141] ?
> 100 µM

---

Would you kindly list pEC50 for each of these compounds?
Molecular target: PPAR-delta (UniProt Q03181)
Sequence (Q03181 1-441): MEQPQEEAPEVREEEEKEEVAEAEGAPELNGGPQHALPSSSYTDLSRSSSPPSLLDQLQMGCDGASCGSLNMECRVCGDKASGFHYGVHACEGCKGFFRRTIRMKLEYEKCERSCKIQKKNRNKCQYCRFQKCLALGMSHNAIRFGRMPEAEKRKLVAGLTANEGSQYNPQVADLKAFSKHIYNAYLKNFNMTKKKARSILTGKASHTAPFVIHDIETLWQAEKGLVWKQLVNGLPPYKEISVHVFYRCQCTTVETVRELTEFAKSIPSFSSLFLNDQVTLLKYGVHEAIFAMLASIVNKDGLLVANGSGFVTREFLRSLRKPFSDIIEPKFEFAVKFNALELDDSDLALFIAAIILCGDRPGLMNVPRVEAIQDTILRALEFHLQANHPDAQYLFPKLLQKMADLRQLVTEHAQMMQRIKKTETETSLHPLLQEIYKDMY
Test: PPAR-delta transactivation assay (GAL4 chimera, luciferase reporter) in CV-1 cells
Assay type: cell-based, murine and human
Details: GAL4-PPAR LBD chimera
pEC50: −log10 of the molar value.

// lookup pEC50 for C[C@@H]1CN(c2ccc(OC(F)(F)F)cc2)C[C@H](C)N1S(=O)(=O)c1cccc2c1CC(c1nnn[nH]1)C2 (some centres unmarked)
> 5.30

What do we get for `O=C(O)Cn1ccc2ccc(S(=O)(=O)N3CCN(c4ccc(C(F)(F)F)cn4)CC3)cc21` ?
> 5.30

What do we get for O=C(O)CC1Cc2ccc(S(=O)(=O)N3CCN(c4ccc(Cl)c(Cl)c4)CC3)cc2C1 (centres unmarked) ?
4.00 to 5.30

What do we get for C[C@@H]1CN(c2ccc(Cl)c(OC(F)(F)F)c2)C[C@H](C)N1S(=O)(=O)c1cccc2c1CC(C(=O)O)C2 (some centres unmarked) ?
> 5.30

What do we get for CC1(C)CN(S(=O)(=O)c2ccc3c(c2)C(C(=O)O)CC3)CCN1c1ccc(C(F)(F)F)cn1 (centres unmarked) ?
> 5.30

What do we get for C[C@@H]1CN(c2ccc(C(F)(F)F)c(Cl)c2)C[C@H](C)N1S(=O)(=O)c1cccc2c1CC(C(=O)O)C2 (single isomer, unassigned) [Example 138] ?
> 5.30

What do we get for `O=C(O)Cn1ccc2cc(Br)c(S(=O)(=O)N3CCN(c4ccc(C(F)(F)F)cn4)CC3)cc21` ?
> 5.30

What do we get for C[C@@H]1[C@H](C)N(c2ccc(C(F)(F)F)cn2)CCN1S(=O)(=O)c1ccc2c(c1)C(C(=O)O)CC2 (stereo in doubt) ?
> 5.30

What do we get for O=C(O)CC1Cc2ccc(S(=O)(=O)N3CCN(c4ccc(C(F)(F)F)cc4)CC3)cc2C1 (centres unmarked) ?
4.00 to 5.30

What do we get for CCC1CN(c2ccc(OC(F)(F)F)cc2)CCN1S(=O)(=O)c1ccc2c(c1)C(C(=O)O)CC2 (centres unmarked) ?
> 5.30

What do we get for C[C@@H]1CN(c2ccc(C(F)(F)F)cn2)C[C@H](C)N1S(=O)(=O)c1ccc2c(c1)C(C(=O)O)CC2 (single isomer, unassigned) [Example 76] ?
> 5.30

What do we get for CC1CN(S(=O)(=O)c2cccc3c2CC(C(=O)O)C3)C(C)CN1c1ccc(C(F)(F)F)cn1 (single isomer, unassigned) [Example 119] ?
4.00 to 5.30

What do we get for `O=C(O)Cn1ccc2cc(S(=O)(=O)N3CCN(c4ccc(C(F)(F)F)cc4)CC3)ccc21` ?
4.00 to 5.30

What do we get for C[C@@H]1CN(c2ccc(OC(F)(F)F)cc2)C[C@H](C)N1S(=O)(=O)c1cccc2c1CC(C(N)=O)C2 (some centres unmarked) ?
> 5.30

---

Target: UniProtKB P37231
Assay: PPAR-gamma transactivation assay (GAL4 chimera, luciferase reporter) in CV-1 cells
Conditions: GAL4-PPAR LBD chimera
Would you kindly list EC50 for each of these compounds?

// lookup EC50 for CC1CN(S(=O)(=O)c2cccc3c2CC(C(=O)O)C3)C(C)CN1c1ccc(C(F)(F)F)cn1 (single isomer, unassigned) [Example 118]
5 to 100 µM

What do we get for C[C@H]1CN(S(=O)(=O)c2ccc3c(c2)C(C(=O)O)CC3)CCN1c1ccc(Cl)c(Cl)c1 (stereo partly drawn) ?
< 5 µM

What do we get for Cc1cc(N2C[C@@H](C)N(S(=O)(=O)c3ccc4c(c3)C(C(=O)O)CC4)[C@@H](C)C2)ccc1OC(F)F (stereo partly drawn) ?
5 to 100 µM

What do we get for `O=C(O)Cc1csc2ccc(S(=O)(=O)N3CCN(c4ccc(C(F)(F)F)cc4)CC3)cc12` ?
5 to 100 µM

What do we get for C[C@@H]1CN(c2ccc(OC(F)(F)F)cc2)C[C@H](C)N1S(=O)(=O)c1cccc2c1CC(C(N)=O)C2 (stereo partly drawn) ?
5 to 100 µM

What do we get for Cc1ccc(N2C[C@@H](C)N(S(=O)(=O)c3cccc4c3CC(C(=O)O)C4)[C@@H](C)C2)cc1C (stereo partly drawn) ?
> 100 µM

What do we get for `O=C(O)Cn1ccc2ccc(S(=O)(=O)N3CCN(c4ccc(C(F)(F)F)cc4)CC3)cc21` ?
5 to 100 µM

What do we get for C[C@@H]1CN(c2ccc(Cl)c(C(F)(F)F)c2)C[C@H](C)N1S(=O)(=O)c1cccc2c1CC(C(=O)O)C2 (stereo partly drawn) ?
> 100 µM

What do we get for `O=C(O)CN1CCc2ccc(S(=O)(=O)N3CCN(c4ccc(OC(F)(F)F)cc4)CC3)cc21` ?
< 5 µM

What do we get for C[C@@H]1CN(c2ccc(Cl)c(Br)c2)C[C@H](C)N1S(=O)(=O)c1cccc2c1CC(C(=O)O)C2 (stereo partly drawn) ?
> 100 µM

What do we get for O=C(O)C1Cc2cccc(S(=O)(=O)N3CCN(c4ccc(OCC(F)(F)F)cc4)CC3)c2C1 (stereo not drawn) ?
5 to 100 µM

What do we get for O=C(O)C1Cc2ccc(S(=O)(=O)N3CCN(c4ccc(C(F)(F)F)cc4)CC3)cc2C1 (stereo not drawn) ?
5 to 100 µM

What do we get for O=C(O)CC1Cc2cccc(S(=O)(=O)N3CCN(c4ccc(Cl)c(Cl)c4)CC3)c2C1 (stereo not drawn) ?
> 100 µM

What do we get for `COc1ccc2c(CC(=O)O)csc2c1S(=O)(=O)N1CCN(c2ccc(C(F)(F)F)cn2)CC1` ?
5 to 100 µM

What do we get for C[C@@H]1CN(c2ccc(OC(F)(F)F)cc2)C[C@H](C)N1S(=O)(=O)c1ccc2c(c1)C(C(=O)O)CC2 (stereo partly drawn) ?
5 to 100 µM
